# Tested on: Staphylococcus epidermidis
# experiment.description: Antimicrobial activity against Staphylococcus epidermidis ATCC 12228 after 18 hrs by broth microdilution method
# Assay type: functional
Residues, ends and D or L forms follow the SMILES beside them. *: point of attachment. Stearoyl = CCCCCCCCCCCCCCCCCC(=O)*; Octanoyl = CCCCCCCC(=O)*
experimental.readout: MIC (µM)
Quick reminder: number only, in µM, skip the unit.

- compound: "CCCCCCCCCCCCCCCCCC(=O)N[C@@H](CCCNC(=N)N)C(=O)N[C@@H](Cc1c[nH]c2ccccc12)C(=O)N[C@@H](CCCNC(=N)N)C(N)=O (Stearoyl-Arg-Trp-Arg-NH2)"
  experimental.readout: "MIC"
  reading: 8

Now consider the entry below.
Case CCCCCCCC(=O)N[C@@H](CCCNC(=N)N)C(=O)N[C@@H](Cc1c[nH]c2ccccc12)C(=O)N[C@@H](Cc1c[nH]c2ccccc12)C(N)=O (Octanoyl-Arg-Trp-Trp-NH2) , Staphylococcus epidermidis, MIC recorded as 16

====

# experiment.description: Stability in mouse serum assessed as parent compound remaining at volume ratio of 1:19 measured after 6 hrs by RP-HPLC analysis
# Type: ADME, cell-free
# cond: read-out: Stabilty
Residues, ends and D or L forms follow the SMILES beside them. *: point of attachment. Lauroyl = CCCCCCCCCCCC(=O)*
experimental.readout: remaining at 6 h
Show the value, then the unit it is measured in.

remaining at 6 h reported for this molecule CCCCCCCCCCCC(=O)N[C@@H](CCCNC(=N)N)C(=O)N[C@@H](CCCNC(=N)N)C(=O)N[C@@H](Cc1c[nH]c2ccccc12)C(N)=O (Lauroyl-Arg-Arg-Trp-NH2) : 70%

====

# Test system: Staphylococcus epidermidis
# experiment.description: Antimicrobial activity against Staphylococcus epidermidis ATCC 12228 after 18 hrs by broth microdilution method
# Assay type: functional
Residues, ends and D or L forms follow the SMILES beside them. *: point of attachment. Palmitoyl = CCCCCCCCCCCCCCCC(=O)*; Lauroyl = CCCCCCCCCCCC(=O)*; Decanoyl = CCCCCCCCCC(=O)*
MIC values by entry
Kindly provide the numeric value in µM only, without the unit symbol.

- molecule: "CCCCCCCCCCCCCCCC(=O)N[C@@H](CCCNC(=N)N)C(=O)N[C@@H](CCCNC(=N)N)C(=O)N[C@@H](Cc1c[nH]c2ccccc12)C(N)=O (Palmitoyl-Arg-Arg-Trp-NH2)"
  experimental.readout: "MIC"
  unit.of.measurement: "µM"
  reading: 8

Lookup result for CCCCCCCCCC(=O)N[C@@H](CCCNC(=N)N)C(=O)N[C@@H](CCCNC(=N)N)C(=O)N[C@@H](CCCNC(=N)N)C(N)=O (Decanoyl-Arg-Arg-Arg-NH2) ; measured MIC: 64

Per the record, CCCCCCCCCCCCCCCC(=O)N[C@@H](Cc1c[nH]c2ccccc12)C(=O)N[C@@H](CCCNC(=N)N)C(=O)N[C@@H](CCCNC(=N)N)C(N)=O (Palmitoyl-Trp-Arg-Arg-NH2) has MIC of 8

Measured MIC, CCCCCCCCCC(=O)N[C@@H](CCCNC(=N)N)C(=O)N[C@@H](CCCNC(=N)N)C(=O)N[C@@H](Cc1c[nH]c2ccccc12)C(N)=O (Decanoyl-Arg-Arg-Trp-NH2) : 16

Notebook: CCCCCCCCCCCC(=O)N[C@@H](CCCNC(=N)N)C(=O)N[C@@H](Cc1c[nH]c2ccccc12)C(=O)N[C@@H](Cc1c[nH]c2ccccc12)C(N)=O (Lauroyl-Arg-Trp-Trp-NH2) , MIC read as 64

====

# Test system: Staphylococcus aureus
# experiment.description: Antimicrobial activity against methicillin-resistant Staphylococcus aureus 75 after 18 hrs by broth microdilution method
# Assay type: functional
Residues, ends and D or L forms follow the SMILES beside them. *: point of attachment. Palmitoyl = CCCCCCCCCCCCCCCC(=O)*; Lauroyl = CCCCCCCCCCCC(=O)*
The reader will find reported MIC values listed item by item below.
Kindly provide the numeric value in µM only, without the unit symbol.

Recorded MIC, per entry:
- compound: "CCCCCCCCCCCC(=O)N[C@@H](CCCNC(=N)N)C(=O)N[C@@H](CCCNC(=N)N)C(=O)N[C@@H](Cc1c[nH]c2ccccc12)C(N)=O (Lauroyl-Arg-Arg-Trp-NH2)"
  MIC [µM]: 4
- compound: "CCCCCCCCCCCCCCCC(=O)N[C@@H](CCCNC(=N)N)C(=O)N[C@@H](Cc1c[nH]c2ccccc12)C(=O)N[C@@H](Cc1c[nH]c2ccccc12)C(N)=O (Palmitoyl-Arg-Trp-Trp-NH2)"
  MIC [µM]: 32

# ---- query compound ----
Entry CCCCCCCCCCCCCCCC(=O)N[C@@H](CCCNC(=N)N)C(=O)N[C@@H](CCCNC(=N)N)C(=O)N[C@@H](CCCNC(=N)N)C(N)=O (Palmitoyl-Arg-Arg-Arg-NH2) — recorded MIC = 8

====

Each entry below carries its recorded MIC.
# Tested on: Staphylococcus epidermidis
# experiment.description: Antimicrobial activity against Staphylococcus epidermidis ATCC 12228 after 18 hrs by broth microdilution method
# Type: functional
Residues, ends and D or L forms follow the SMILES beside them. *: point of attachment. Stearoyl = CCCCCCCCCCCCCCCCCC(=O)*; Lauroyl = CCCCCCCCCCCC(=O)*; Decanoyl = CCCCCCCCCC(=O)*
Reply numerically in µM, unit not repeated.

- compound: "CCCCCCCCCCCC(=O)N[C@@H](CCCNC(=N)N)C(=O)N[C@@H](CCCNC(=N)N)C(=O)N[C@@H](CCCNC(=N)N)C(N)=O (Lauroyl-Arg-Arg-Arg-NH2)"
  reading: 16

According to the records, this compound CCCCCCCCCCCCCCCCCC(=O)N[C@@H](CCCNC(=N)N)C(=O)N[C@@H](Cc1c[nH]c2ccccc12)C(=O)N[C@@H](Cc1c[nH]c2ccccc12)C(N)=O (Stearoyl-Arg-Trp-Trp-NH2) displays MIC of 128

Entry CCCCCCCCCC(=O)N[C@@H](CCCNC(=N)N)C(=O)N[C@@H](Cc1c[nH]c2ccccc12)C(=O)N[C@@H](Cc1c[nH]c2ccccc12)C(N)=O (Decanoyl-Arg-Trp-Trp-NH2) ; MIC = 32
